Test system: 20S CP
Experiment: standard FRET assay with the standard 20S CP
Format: biochemical
Settings: derivative at 25 μM, in triplicate
observable: % activity increase (increase in 20S proteasome activity) (%)
Answer in %, number only, no unit symbol.

# compound, system-under-test, reading-unit, assay-result
records = [
    ("Clc1ccc(COC(Cn2ccnc2)c2ccc(Cl)cc2Cl)cc1 (centres unmarked)", "20S CP", "%", 0),
]

The recorded % activity increase (increase in 20S proteasome activity) for entry FC(F)(F)c1ccc(COC(Cn2ccnc2)c2ccc(Cl)cc2Cl)cc1 (centres unmarked) equals 232

----------
Molecular target: 20S CP
Test: standard FRET assay with the standard 20S CP
Conditions: read-out: EC50 (effective concentration that induces 50% of its maximum stimulatory effect); dose-response, standard 20S CP (sCP)
observable: EC50 (µM)
Give the value, in units of µM, as a plain number.

get_value(item= Clc1ccc(COC(Cn2ccnc2)c2ccc(Cl)cc2Cl)c(Cl)c1 (stereo not shown) [miconazole, reference compound] , readout=EC50) returns 20

----------
As shown below, each of these compounds has a reported % activity increase (increase in 20S proteasome activity) value.
Tested on: 20S CP
Test: standard FRET assay with the standard 20S CP
Format: biochemical
Settings: derivative at 25 μM, in triplicate
The response must be a number in % with no trailing unit.

Below are worked cases with known answers.
# compound, assay-result
rows = [
    ("Fc1ccc(COC(Cn2cccc2)c2ccc(Cl)cc2Cl)c(F)c1 (stereo not drawn)", 0),
    ("Clc1ccc(C(Cn2cccc2)OCc2ccccc2)c(Cl)c1 (stereo not drawn)", 0),
    ("CC(C)(C)c1ccc(COC(Cn2ccnc2)c2ccc(Cl)cc2Cl)cc1 (stereo not drawn)", 248),
    ("Clc1ccc(C(Cn2ccnc2)OCc2c(Cl)cccc2Cl)c(Cl)c1 (stereo not drawn)", 171),
    ("Clc1ccc(C(Cn2ccnc2)OCc2ccccc2Cl)c(Cl)c1 (stereo not drawn)", 122),
    ("Clc1ccc(C(Cn2cccc2)OCc2ccc(Br)cc2Br)c(Cl)c1 (stereo not drawn)", 0),
    ("CC(C)(C)c1ccc(C[n+]2ccn(CC(OCc3ccc(Cl)cc3Cl)c3ccc(Cl)cc3Cl)c2)cc1.[Br-] (stereo not drawn)", 0),
    ("Cc1ccc(COC(Cn2cccc2)c2ccc(Cl)cc2Cl)c(C)c1 (stereo not drawn)", 0),
]

Please fill in: % activity increase (increase in 20S proteasome activity) reported for C#CC[n+]1ccn(CC(OCc2ccc(Cl)cc2Cl)c2ccc(Cl)cc2Cl)c1.[Br-] (stereo not drawn) = 0
